Below, each entry is listed with its recorded relative viability.
- Test system: LOU-NH91
- protocol_summary: relative viability (nuclei count vs DMSO), 5 days (fraction); higher = more cells survive
- experimental_conditions: first compound 0.8 µM

# compound, system_name, relative viability
rows = [
    ("Oc1nc(-c2ccc(C(F)(F)F)cc2)nc2c1CSCC2 [XAV939] + C[C@]1(O)C[C@@H](c2nc(-c3ccc4ccc(-c5ccccc5)nc4c3)c3c(N)nccn32)C1 [Linsitinib] (partner 1 µM)", "LOU-NH91", 0.996),
    ("Oc1nc(-c2ccc(C(F)(F)F)cc2)nc2c1CSCC2 [XAV939] + N=C(N)NC(=N)NCCc1ccccc1 [Phenformin] (partner 250 µM)", "LOU-NH91", 0.702),
    ("Oc1nc(-c2ccc(C(F)(F)F)cc2)nc2c1CSCC2 [XAV939] + COc1cccc2cc(-c3nc([C@H]4CC[C@H](C(=O)O)CC4)n4ncnc(N)c34)[nH]c12 [OSI-027] (partner 0.5 µM)", "LOU-NH91", 0.69),
    ("C=C1C(=O)O[C@@H](CCCCCCCC)[C@@H]1C(=O)O [C-75] + O=C(c1cc(Cc2n[nH]c(=O)c3ccccc23)ccc1F)N1CCN(C(=O)C2CC2)CC1 [Olaparib] (partner 8 µM)", "LOU-NH91", 0.878),
    ("Oc1nc(-c2ccc(C(F)(F)F)cc2)nc2c1CSCC2 [XAV939] + O=C(c1cc(Cc2n[nH]c(=O)c3ccccc23)ccc1F)N1CCN(C(=O)C2CC2)CC1 [Olaparib] (partner 8 µM)", "LOU-NH91", 0.908),
    ("Oc1nc(-c2ccc(C(F)(F)F)cc2)nc2c1CSCC2 [XAV939] + Nc1nc2[nH]cc(CCc3ccc(C(=O)N[C@@H](CCC(=O)O)C(=O)O)cc3)c2c(=O)[nH]1 [Pemetrexed] (partner 0.2 µM)", "LOU-NH91", 0.391),
    ("Oc1nc(-c2ccc(C(F)(F)F)cc2)nc2c1CSCC2 [XAV939] + CS(=O)(=O)N1CCN(Cc2cc3nc(-c4cccc5[nH]ncc45)nc(N4CCOCC4)c3s2)CC1 [Pictilisib] (partner 1 µM)", "LOU-NH91", 0.509),
    ("C=C1C(=O)O[C@@H](CCCCCCCC)[C@@H]1C(=O)O [C-75] + Cc1cc(Nc2cc(N3CCN(C)CC3)nc(Sc3ccc(NC(=O)C4CC4)cc3)n2)n[nH]1 [Tozasertib] (partner 0.1 µM)", "LOU-NH91", 0.597),
]
